B1: OR4K15 (parent)
chain: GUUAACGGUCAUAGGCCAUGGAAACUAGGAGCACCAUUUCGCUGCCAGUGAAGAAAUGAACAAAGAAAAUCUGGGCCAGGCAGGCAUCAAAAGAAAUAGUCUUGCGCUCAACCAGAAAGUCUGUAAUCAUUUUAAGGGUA

Variants of: B1
assay_comment: self-cleavage, relative activity (ratio to wild type); higher = more cleavage; in vitro, sequencing; the parent is a self-cleaving ribozyme
Grouping rule (self-cleavage): low bracket = under 0.2, middle bracket = from 0.2 up to 1, high bracket = 1 and over

U102C G138A : high bracket

IN: Kindly identify the class of A22U A62U .
OUT: high bracket

IN: Any idea which band G29A A96G is in?
OUT: high bracket

IN: Tag the class for G21C U108C
OUT: low bracket

IN: Hey, which category is U3C A89C in, do you know?
OUT: middle bracket

IN: Each variant maps to one class by self-cleavage. Which class for U103C G138C ?
OUT: middle bracket

IN: Which self-cleavage category applies to A63G A82U here?
OUT: middle bracket

IN: Please indicate the class for A24U U26A based on its self-cleavage.
OUT: high bracket

IN: Class for U19C C113U ?
OUT: low bracket

IN: Which bin, given its self-cleavage, does U26A G44C occupy?
OUT: middle bracket
